Data credit: ChEMBL document CHEMBL5335853

selectivity ratio reference
- Assay explanation: Selectivity index, ratio of CC50 for cytotoxicity against human Huh7.5 cells to EC50 for antiviral activity against HCV infected in human Huh7.5 cells
- Type: toxicity, cell-based
- Condition parameters: read-out: Ratio CC50/EC50

[
  {
    "Molecule": "CC(C)OC(=O)[C@H](C)N[P@](=O)(OC[C@H]1O[C@@H](n2ccc(=O)[nH]c2=O)[C@](C)(F)[C@@H]1O)Oc1ccccc1 [SOFOSBUVIR]",
    "selectivity ratio": "> 2220"
  }
]

Task: So what does the record say about selectivity ratio for COC[C@@H](O)[C@@H](OC/C=C(\C)[C@@H](C[C@H]1O[C@H](C=C(C)C)C[C@]1(C)O)OC(=O)Cc1ccccc1)[C@H](O)[C@H](O)CO ?
Output: > 17

Task: So what does the record say about selectivity ratio for CC(C)=CCC[C@](C)(O)[C@H](O)C[C@@H](OC(=O)Cc1ccccc1)/C(C)=C/CO[C@@H]([C@H](O)[C@@H](C)O)[C@H](O)CO ?
Output: > 25

Task: So what does the record say about selectivity ratio for CC(C)=C[C@H]1C[C@](C)(O)[C@@H](C[C@@H](OC(=O)Cc2ccccc2)/C(C)=C/CO[C@@H]([C@H](O)[C@H](O)CO)[C@H](O)CO)O1 ?
Output: > 12

Task: So what does the record say about selectivity ratio for CC(C)=C[C@@H]1C[C@](C)(O)[C@@H](C[C@@H](OC(=O)Cc2ccccc2)/C(C)=C/CO[C@@H]([C@H](O)[C@H](O)CO)[C@H](O)CO)O1 ?
Output: > 23

Task: So what does the record say about selectivity ratio for COC[C@@H](O)[C@@H](OC/C=C(\C)[C@@H](C[C@@H](O)[C@@](C)(O)CCC=C(C)C)OC(=O)Cc1ccccc1)[C@H](O)[C@H](O)CO ?
Output: > 4

Task: So what does the record say about selectivity ratio for CC(C)=CCC[C@](C)(O)[C@H](O)C[C@@H](OC(=O)Cc1ccccc1)/C(C)=C/CO[C@@H]([C@H](O)[C@H](O)CO)[C@H](O)CO ?
Output: > 42

Task: So what does the record say about selectivity ratio for CC(C)=CCC[C@](C)(O)[C@H](O)C[C@@H](OC(=O)Cc1ccccc1)/C(C)=C/COC([C@H](O)CO)[C@H](O)CO ?
Output: > 31
